Reference source: ChEMBL document CHEMBL5370646

assay: Growth inhibition of human CCD-841CoN cells assessed as reduction in cell viability incubated for 72 hrs; assay type: toxicity, cell-based
This listing pairs molecules with measured GI50 at 72 h.
The figure you give is taken to be in nM; do not add the unit.

>>> experimentalresult("COCO[C@@H](C)/C=C\\C(=O)N[C@@H]1CC[C@H](C/C=C(C)/C=C/[C@H]2OC(C)(C)C[C@@]3(CO3)[C@@H]2O)O[C@@H]1C")
63.2
>>> experimentalresult("CC(=O)O[C@@H](C)/C=C\\C(=O)N[C@@H]1C[C@H](C)[C@H](C/C=C(C)/C=C/[C@H]2OC(C)(C)C[C@@]3(CO3)[C@@H]2O)O[C@@H]1C")
2

Proceeding to the next molecule to report its GI50 at 72 h.
Ask: Query GI50 at 72 h for COCO[C@@H](C)/C=C\C(=O)N[C@@H]1C[C@H](C)[C@H](C/C=C(C)/C=C/[C@H]2OC(C)(C)C[C@@]3(CO3)[C@@H]2O)O[C@@H]1C
Result: 9.6

----------
experiment: Growth inhibition of mouse FL83B cells assessed as reduction in cell viability incubated for 72 hrs; format: toxicity, cell-based
testReadout: GI50 at 72 h (nM)
Numbers only; they are read as nM.

>>> experimentalresult("COCO[C@@H](C)/C=C\\C(=O)N[C@@H]1CC[C@H](C/C=C(C)/C=C/[C@H]2OC(C)(C)C[C@@]3(CO3)[C@@H]2O)O[C@@H]1C")
35.7

Ask: Recall and state the measured GI50 at 72 h for CC(=O)O[C@@H](C)/C=C\C(=O)N[C@@H]1C[C@H](C)[C@H](C/C=C(C)/C=C/[C@H]2OC(C)(C)C[C@@]3(CO3)[C@@H]2O)O[C@@H]1C .
Result: 0.9

Ask: Give GI50 at 72 h for the following compound: COCO[C@@H](C)/C=C\C(=O)N[C@@H]1C[C@H](C)[C@H](C/C=C(C)/C=C/[C@H]2OC(C)(C)C[C@@]3(CO3)[C@@H]2O)O[C@@H]1C
Result: 5.7

----------
Listing of recorded GI50 by entry.
tested on: HCT-116; test: Growth inhibition of human HCT-116 cells assessed as reduction in cell viability incubated for 72 hrs; type: functional
Reply with just the number (in nM).

Take a look at these entries with their results.
>>> experimentalresult("COCO[C@@H](C)/C=C\\C(=O)N[C@@H]1C[C@H](C)[C@H](C/C=C(C)/C=C/[C@H]2OC(C)(C)C[C@@]3(CO3)[C@@H]2O)O[C@@H]1C")
2
>>> experimentalresult("COCO[C@@H](C)/C=C\\C(=O)N[C@@H]1CC[C@H](C/C=C(C)/C=C/[C@H]2OC(C)(C)C[C@@]3(CO3)[C@@H]2O)O[C@@H]1C")
10.5

Ask: Identify measured GI50 associated with COCO[C@@H](C)/C=C\C(=O)N(C)[C@@H]1C[C@H](C)[C@H](C/C=C(C)/C=C/[C@H]2OC(C)(C)C[C@@]3(CO3)[C@@H]2O)O[C@@H]1C
Result: 4100

Ask: Hello, please tell me recorded GI50 for this one: CC(=O)O[C@@H](C)/C=C\C(=O)N[C@@H]1C[C@H](C)[C@H](C/C=C(C)/C=C/[C@H]2OC(C)(C)C[C@@]3(CO3)[C@@H]2O)O[C@@H]1C
Result: 0.7

Ask: For COCO[C@@H](C)/C=C\C(=O)N(C)[C@@H]1CC[C@H](C/C=C(C)/C=C/[C@H]2OC(C)(C)C[C@@]3(CO3)[C@@H]2O)O[C@@H]1C , write its GI50.
Result: 16000

----------
assay: Metabolic stability in CD1 mouse plasma assessed as half life measured after 10 mins by LC-MS analysis; type: ADME, cell-free
testReadout: half-life (min)
Kindly provide the numeric value in min only, without the unit symbol.

Ask: Return reported half-life. Input compound: CC(=O)O[C@@H](C)/C=C\C(=O)N[C@@H]1C[C@H](C)[C@H](C/C=C(C)/C=C/[C@H]2OC(C)(C)C[C@@]3(CO3)[C@@H]2O)O[C@@H]1C
Result: 1
